Test system: HCT-116 human colon cancer cells
protocol details: Colony formation inhibition test on HCT-116 human colon cancer cells
Format: cell-based
measurement conditions: Homo sapiens, HCT-116; 150 nM; 72 h treatment, then 7-10 days; read-out: % inhibition (colony formation inhibition rate)
value kind: inhibition at 0.15 µM (%)
Give the value in % but do not write % after it.

# compound, inhibition at 0.15 µM (%)
rows = [
    ("CCCCOC(=O)Nc1ccn([C@H]2O[C@@H](COC(=O)CCC(=O)OC[C@H]3O[C@@H](n4ccc(NC(=O)OCCCC)nc4=O)C(F)(F)[C@@H]3O)[C@H](O)C2(F)F)c(=O)n1 (stereo in doubt) [Compound D2]", 25.1),
    ("CCCCOC(=O)Nc1ccn(C2OC(COC(=O)CCCC(=O)OC[C@H]3O[C@@H](n4ccc(NC(=O)OCCCC)nc4=O)C(F)(F)[C@@H]3OC(=O)OCCCC)C(OC(=O)OCCCC)C2(F)F)c(=O)n1 (stereo in doubt) [Compound D1]", 25.1),
    ("O=C(CCCC(=O)OC[C@H]1O[C@@H](n2ccc(NC(=O)OCc3ccccc3)nc2=O)C(F)(F)[C@@H]1O)OC[C@H]1O[C@@H](n2ccc(NC(=O)OCc3ccccc3)nc2=O)C(F)(F)[C@@H]1O [Compound D3]", 91.7),
]

**Q:** Endpoint output: inhibition at 0.15 µM of CCCCOC(=O)Nc1ccn(C2OC(COC(=O)CCC(=O)OC[C@H]3O[C@@H](n4ccc(NC(=O)OCc5ccccc5)nc4=O)C(F)(F)[C@@H]3O)C(O)C2(F)F)c(=O)n1 (stereo in doubt) [Compound D4] . Value?
**A:** 70.7

----------
protocol details: Body weight / toxicity of a single intraperitoneal injection in HCT-116 colon tumor-bearing nude mice
measurement conditions: Day 18; single IP injection (QD×1); D1 and D2 400 mg/kg, D3 350 mg/kg, D4 300 mg/kg
Below, each of the compounds is paired with its reported Average rate of weight change of the animals value.
Give the value in % but do not write % after it.

# compound, observed result
rows = [
    ("O=C(CCCC(=O)OC[C@H]1O[C@@H](n2ccc(NC(=O)OCc3ccccc3)nc2=O)C(F)(F)[C@@H]1O)OC[C@H]1O[C@@H](n2ccc(NC(=O)OCc3ccccc3)nc2=O)C(F)(F)[C@@H]1O", 13.71),
    ("CCCCOC(=O)Nc1ccn(C2OC(COC(=O)CCCC(=O)OC[C@H]3O[C@@H](n4ccc(NC(=O)OCCCC)nc4=O)C(F)(F)[C@@H]3OC(=O)OCCCC)C(OC(=O)OCCCC)C2(F)F)c(=O)n1 (stereo in doubt) [Compound D1]", 12.70),
    ("CCCCOC(=O)Nc1ccn(C2OC(COC(=O)CCC(=O)OC[C@H]3O[C@@H](n4ccc(NC(=O)OCc5ccccc5)nc4=O)C(F)(F)[C@@H]3O)C(O)C2(F)F)c(=O)n1 (stereo in doubt)", 8.99),
]

**Q:** Endpoint output: Average rate of weight change of the animals of CCCCOC(=O)Nc1ccn([C@H]2O[C@@H](COC(=O)CCC(=O)OC[C@H]3O[C@@H](n4ccc(NC(=O)OCCCC)nc4=O)C(F)(F)[C@@H]3O)[C@H](O)C2(F)F)c(=O)n1 (stereo in doubt) [Compound D2] . Value?
**A:** 8.83

----------
protocol details: Body weight / toxicity of a single intraperitoneal injection in HCT-116 colon tumor-bearing nude mice
measurement conditions: Day 0; single IP injection (QD×1); D1 and D2 400 mg/kg, D3 350 mg/kg, D4 300 mg/kg; Mean±SEM
value kind: Average weight of the animals (g)
Give the value in g but do not write g after it.

# compound, Average weight of the animals [g]
records = [
    ("O=C(CCCC(=O)OC[C@H]1O[C@@H](n2ccc(NC(=O)OCc3ccccc3)nc2=O)C(F)(F)[C@@H]1O)OC[C@H]1O[C@@H](n2ccc(NC(=O)OCc3ccccc3)nc2=O)C(F)(F)[C@@H]1O", 19.95),
]

**Q:** Endpoint output: Average weight of the animals of CCCCOC(=O)Nc1ccn(C2OC(COC(=O)CCCC(=O)OC[C@H]3O[C@@H](n4ccc(NC(=O)OCCCC)nc4=O)C(F)(F)[C@@H]3OC(=O)OCCCC)C(OC(=O)OCCCC)C2(F)F)c(=O)n1 (stereo in doubt) [Compound D1] . Value?
**A:** 19.98

**Q:** Endpoint output: Average weight of the animals of CCCCOC(=O)Nc1ccn(C2OC(COC(=O)CCC(=O)OC[C@H]3O[C@@H](n4ccc(NC(=O)OCc5ccccc5)nc4=O)C(F)(F)[C@@H]3O)C(O)C2(F)F)c(=O)n1 (stereo in doubt) . Value?
**A:** 20.15

**Q:** Endpoint output: Average weight of the animals of CCCCOC(=O)Nc1ccn([C@H]2O[C@@H](COC(=O)CCC(=O)OC[C@H]3O[C@@H](n4ccc(NC(=O)OCCCC)nc4=O)C(F)(F)[C@@H]3O)[C@H](O)C2(F)F)c(=O)n1 (stereo in doubt) [Compound D2] . Value?
**A:** 19.87

----------
Tested on: HCT-116 human colon cancer xenografts
protocol details: Tumor growth inhibition of HCT-116 human colon cancer xenografts in nude mice
Format: in vivo, Balb/c nude mice
measurement conditions: Day 4; single IP injection (QD×1); D1 and D2 400 mg/kg, D3 350 mg/kg, D4 300 mg/kg
value kind: Relative tumor proliferation rate (T/C %)
Give the value in % but do not write % after it.

Worked cases, answers included:
# compound, units, observed result
data = [
    ("O=C(CCCC(=O)OC[C@H]1O[C@@H](n2ccc(NC(=O)OCc3ccccc3)nc2=O)C(F)(F)[C@@H]1O)OC[C@H]1O[C@@H](n2ccc(NC(=O)OCc3ccccc3)nc2=O)C(F)(F)[C@@H]1O [Compound D3]", "%", 23.26),
    ("CCCCOC(=O)Nc1ccn(C2OC(COC(=O)CCC(=O)OC[C@H]3O[C@@H](n4ccc(NC(=O)OCc5ccccc5)nc4=O)C(F)(F)[C@@H]3O)C(O)C2(F)F)c(=O)n1 (stereo in doubt) [Compound D4]", "%", 43.31),
    ("CCCCOC(=O)Nc1ccn([C@H]2O[C@@H](COC(=O)CCC(=O)OC[C@H]3O[C@@H](n4ccc(NC(=O)OCCCC)nc4=O)C(F)(F)[C@@H]3O)[C@H](O)C2(F)F)c(=O)n1 (stereo in doubt) [Compound D2]", "%", 25.19),
]

Kindly review the next compound as well.
**Q:** I'm curious: which Relative tumor proliferation rate (T/C %) was measured for CCCCOC(=O)Nc1ccn(C2OC(COC(=O)CCCC(=O)OC[C@H]3O[C@@H](n4ccc(NC(=O)OCCCC)nc4=O)C(F)(F)[C@@H]3OC(=O)OCCCC)C(OC(=O)OCCCC)C2(F)F)c(=O)n1 (stereo in doubt) [Compound D1] tested on HCT-116 human colon cancer xenografts?
**A:** 32.20

----------
Below, each of the molecules is paired with its reported Tumor volume of HCT-116 human colon cancer xenografts value.
Tested on: HCT-116 human colon cancer xenografts
protocol details: Tumor growth inhibition of HCT-116 human colon cancer xenografts in nude mice
Type: in vivo, Balb/c nude mice
measurement conditions: Day 11; single IP injection (QD×1); D1 and D2 400 mg/kg, D3 350 mg/kg, D4 300 mg/kg; Mean±SEM
Marks after values point to notes of the source that are not given here.

# molecule, experimental target, observed result
data = [
    ("CCCCOC(=O)Nc1ccn([C@H]2O[C@@H](COC(=O)CCC(=O)OC[C@H]3O[C@@H](n4ccc(NC(=O)OCCCC)nc4=O)C(F)(F)[C@@H]3O)[C@H](O)C2(F)F)c(=O)n1 (stereo in doubt) [Compound D2]", "HCT-116 human colon cancer xenografts", "57.29 ± 33.0** mm^3"),
    ("CCCCOC(=O)Nc1ccn(C2OC(COC(=O)CCC(=O)OC[C@H]3O[C@@H](n4ccc(NC(=O)OCc5ccccc5)nc4=O)C(F)(F)[C@@H]3O)C(O)C2(F)F)c(=O)n1 (stereo in doubt) [Compound D4]", "HCT-116 human colon cancer xenografts", "26.19 ± 5.79** mm^3"),
    ("O=C(CCCC(=O)OC[C@H]1O[C@@H](n2ccc(NC(=O)OCc3ccccc3)nc2=O)C(F)(F)[C@@H]1O)OC[C@H]1O[C@@H](n2ccc(NC(=O)OCc3ccccc3)nc2=O)C(F)(F)[C@@H]1O [Compound D3]", "HCT-116 human colon cancer xenografts", "14.28 ± 3.69** mm^3"),
]

Kindly review the next molecule as well.
**Q:** I'm curious: which Tumor volume of HCT-116 human colon cancer xenografts was measured for CCCCOC(=O)Nc1ccn(C2OC(COC(=O)CCCC(=O)OC[C@H]3O[C@@H](n4ccc(NC(=O)OCCCC)nc4=O)C(F)(F)[C@@H]3OC(=O)OCCCC)C(OC(=O)OCCCC)C2(F)F)c(=O)n1 (stereo in doubt) [Compound D1] tested on HCT-116 human colon cancer xenografts?
**A:** 101.02 ± 78.57** mm^3
